type: in vivo, Sprague-Dawley rats; settings: male, Sprague-Dawley, rat, plasma, po, 80 mg kg^-1 Gandi capsule
test readout: concentration at 2 h (ng/mL)

| compound | units text | concentration at 2 h |
| --- | --- | --- |
| COc1c(O)cc(O)c2c(=O)cc(-c3ccccc3)oc12 [Wogonin, wogonin] | ng/mL | 54.9 |

[a] COC(=O)C1=CO[C@@H](O[C@@H]2O[C@H](CO)[C@@H](O)[C@H](O)[C@H]2O)[C@@H]2[C@@H](C)[C@@H](O)C[C@H]12 [Loganin, loganin]
[b] O=C(O)[C@H]1O[C@@H](Oc2cc3oc(-c4ccccc4)cc(=O)c3c(O)c2O)[C@H](O)[C@@H](O)[C@@H]1O [Baicalin, baicalin]
Q: When their concentration at 2 h values are compared, which is larger, a or b ? To answer, give the label that identifies your chosen option.
A: b

Reference for the values: paper PMC9078286
